Values were extracted from ChEMBL document CHEMBL1201862.

The compounds listed here are annotated with their GI50.
system: MOLT-4; experiment: NCI tumour cell line growth inhibition, 48 h
Active and inactive are the calls of the source. No stated cut-off is given here; in the data, active = GI50 up to about 1.1 µM and inactive = higher.

{"columns": ["compound", "system name", "GI50"],
 "data": [
  ["Cc1ccc2c(c1CCCC(C)(C)O)C(=O)C(O)=C(C(C)C)C2=O", "MOLT-4", "60.1 µM (inactive)"],
  ["Cc1cc(C)c2c(n1)S(=O)(=O)N(CCCN1CCN(c3cccc(C(F)(F)F)c3)CC1)C(C(=O)c1ccc(Cl)cc1)=C2O", "MOLT-4", "0.418 µM (active)"],
  ["O=C1CC(/C=C/c2ccco2)=C(O)C1=O", "MOLT-4", "14 µM (inactive)"],
  ["Nc1ccc(-c2cssc2=S)cc1", "MOLT-4", "1.17 µM (inactive)"],
  ["COC(=O)c1ccccc1CC1Cc2cc3c(cc2C1=O)CCC3 (stereo unspecified)", "MOLT-4", "5.11 µM (inactive)"],
  ["O=P1(O)c2ccccc2Nc2cc(C(F)(F)F)ccc21", "MOLT-4", "> 100 µM (inactive)"],
  ["CN(C(=O)c1ccc(Cl)s1)C(=S)N(C)C(=O)c1ccc(Cl)s1", "MOLT-4", "> 10 µM (inactive)"],
  ["COc1cc(OC)c(C#N)c(OC)c1C", "MOLT-4", "> 100 µM (inactive)"],
  ["Cc1cc(O)nc(NNC(C#N)c2cccc(O)c2)n1 (stereo unspecified)", "MOLT-4", "> 100 µM (inactive)"],
  ["CCN(CC)c1ccc(C2SCC(=O)N2c2ccc(NC(=O)c3ccc(N4C(=O)CSC4c4ccc(N(CC)CC)cc4)cc3)cc2)cc1 (stereo unspecified)", "MOLT-4", "29.7 µM (inactive)"],
  ["O=C1Nc2ccccc2/C1=C1/Nc2ccccc2/C1=N\\OCCNCC(O)C(O)C(O)C(O)CO (stereo unspecified)", "MOLT-4", "12.9 µM (inactive)"]
]}

---

tested on: RXF 393; assay: NCI tumour cell line growth inhibition, 48 h
Calls of active or inactive are those of the source. Cut-off read from the data, not from the text of the source: active = GI50 up to about 1.1 µM and inactive = higher.
The compounds listed here are annotated with their GI50.

{"columns": ["compound", "GI50"],
 "data": [
  ["CCN(CC)c1ccc(C2SCC(=O)N2c2ccc(NC(=O)c3ccc(N4C(=O)CSC4c4ccc(N(CC)CC)cc4)cc3)cc2)cc1 (stereo unspecified)", "> 100 µM (inactive)"],
  ["CCOC(=O)Cc1csc2[n+]1C(=O)/C(=C\\c1cccc(Cl)c1Cl)S2", "16.7 µM (inactive)"],
  ["CCOC(=O)c1ccc(C(=O)/C(C#N)=C2\\CCCN2)[nH]1", "14.8 µM (inactive)"],
  ["[N-]=[N+]=C(C(=O)N1CCCC1=O)S(=O)(=O)c1ccccc1", "70.6 µM (inactive)"],
  ["CSc1ccc(-c2cc(-c3nc4ccccc4[nH]3)nc3[nH]c(-c4nc5ccccc5[nH]4)cc(=O)c23)cc1", "52.5 µM (inactive)"],
  ["CC1OC2/C=C\\CC(O)C(C)(C)C3CCC(C)C4(O3)O[B-]35OC(C(=O)OC1C2)C1(OC(CCC1C)C(C)(C)C(O)C/C=C\\C1CC(OC(=O)C4O3)C(C)O1)O5 (stereo unspecified)", "1.87 µM (inactive)"],
  ["C[N+]1(CCCC[N+]2(C)CCCCCCC2)CCCCCCC1", "> 100 µM (inactive)"],
  ["Nc1c2c(nc3ccccc13)-c1ccccc1NCCC2", "16.1 µM (inactive)"],
  ["N#CC1(C#N)C2=C(CCCC2)NC(c2ccc(Br)cc2)C1(C#N)C#N (stereo unspecified)", "2.24 µM (inactive)"],
  ["CN(C)CCC(/C=C/c1ccccc1)=N\\Nc1c(F)c(F)c(F)c(F)c1F", "11.3 µM (inactive)"],
  ["CNC(=O)OCc1nc(SC)n(C)c1COC(=O)NC", "50.8 µM (inactive)"],
  ["Cn1c(=O)c2nc3sc4ccccc4c(=N)n3c2n(C)c1=O", "> 100 µM (inactive)"],
  ["CC(C)(C)C(=O)/C=C/c1ccc(Oc2ccccc2)cc1", "27.4 µM (inactive)"],
  ["COc1cc(S(=O)(=O)Nc2ccc(-c3csc(/N=C\\c4ccccc4)n3)cc2)ccc1Cl", "1.44 µM (inactive)"],
  ["Cc1cc(Cl)ccc1NC(=O)C(=O)Cc1nc2ccc(C(=O)c3ccccc3)cc2nc1O", "> 100 µM (inactive)"],
  ["COc1ccc(/C=N/NC(=O)c2ccc(O)c(CN(C)C)c2)cc1", "> 100 µM (inactive)"],
  ["COc1cc2nc(Nc3cccc(Br)c3)nc(Nc3cccc(Br)c3)c2cc1OC", "18.4 µM (inactive)"],
  ["CCOc1ccccc1NC(=O)CCC(=O)NN", "> 100 µM (inactive)"],
  ["CN(C1=NS(=O)(=O)N=C(N(C)c2ccccc2)O1)c1ccccc1", "3.55 µM (inactive)"],
  ["COC(=O)N/N=C/c1oc(-c2cccc([N+](=O)[O-])c2)c(-c2cccc([N+](=O)[O-])c2)c1[N+](=O)[O-]", "> 100 µM (inactive)"],
  ["Cc1ccccc1-n1c(=O)c2ncn(CCCl)c2n(-c2ccccc2C)c1=S", "> 100 µM (inactive)"]
]}

---

tested on: UACC-62; assay: NCI tumour cell line growth inhibition, 48 h
The source made the active and inactive calls. Cut-off read from the data, not from the text of the source: active = GI50 up to about 1.1 µM and inactive = higher.

{"columns": ["compound", "GI50"],
 "data": [
  ["COc1cc(OC)c(C#N)c(OC)c1C", "> 100 µM (inactive)"],
  ["Cc1ccc(-n2c(=O)c3nn4c(=O)n(-c5ccc(C)cc5)c(=O)c4nn3c2=O)cc1", "> 100 µM (inactive)"],
  ["COc1cc(C(O)CCBr)c(OC)cc1C (stereo not given)", "14.6 µM (inactive)"],
  ["CCn1cc(C(=O)O)c(=O)c2cc(F)c(N3CCN(CN4C(=O)/C(=N\\c5ncc(Cc6cc(OC)c(OC)c(OC)c6)c(N)n5)c5cc(Cl)ccc54)CC3)cc21", "> 100 µM (inactive)"],
  ["N#Cc1ccc(OCc2nc3cc(C(F)(F)F)ccc3nc2-c2ccccc2)cc1", "> 100 µM (inactive)"]
]}

---

tested on: OVCAR-5; assay: NCI tumour cell line growth inhibition, 48 h
Activity calls are given as the source filed them. Rule as the data show it: active = GI50 up to about 1.1 µM and inactive = higher.
measured property: GI50

{"columns": ["compound", "result"],
 "data": [
  ["CN(C)CCNC(=O)c1cccc(N(C)C(=O)c2ccccc2)c1[N+](=O)[O-]", "> 100 µM (inactive)"],
  ["CN1CCN(c2ccc3[nH]c(-c4ccc5[nH]c(-c6ccc(O)cc6)nc5c4)nc3c2)CC1", "473 µM (inactive)"],
  ["c1ccc2c(c1)CCCN1CCc3ccccc3C21 (stereo unspecified)", "42.2 µM (inactive)"],
  ["CCCCNC(=S)OCCC(C)CCCC(C)C (stereo unspecified)", "> 100 µM (inactive)"],
  ["CN(CCCNCc1ccccn1)Cc1ccccc1O", "32 µM (inactive)"],
  ["Cc1cc(N(CCC#N)CCC#N)ccc1/N=N/c1cccc(C(=O)O)c1", "> 100 µM (inactive)"],
  ["O=[N+]([O-])c1cccc(/C=N\\NS(=O)(=O)c2ccc(Cl)cc2)c1O", "> 100 µM (inactive)"],
  ["NC1(c2cc3ccccc3s2)CCCC1", "> 100 µM (inactive)"],
  ["O=c1[nH]nc(-c2ccccc2)n1/N=C/c1c(O)ccc2ccccc12", "> 100 µM (inactive)"],
  ["COc1ccc(/C=C/COC(C)=O)cc1OC", "> 100 µM (inactive)"],
  ["CC(=O)NC(CCCCN(Cc1ccccc1)C(=O)N(CCCl)N=O)C(=O)NCc1ccccc1 (stereo unspecified)", "> 67.6 µM (inactive)"]
]}

---

tested on: NCI-H460; test: NCI tumour cell line growth inhibition, 48 h
Activity calls are given as the source filed them. No stated cut-off is given here; in the data, active = GI50 up to about 1.1 µM and inactive = higher.
Possible outcomes: active, inactive

{"columns": ["compound", "group label"],
 "data": [
  ["N=c1ccn2c(n1)OC1C(OP(=O)(O)O)C(CO)OC12 (stereo unspecified)", "active"],
  ["Cc1ccc(S(=O)(=O)N(CC(O)COc2ccccc2)c2ccccc2Cl)cc1 (stereo unspecified)", "inactive"],
  ["Cc1ccc(C(=O)c2[nH]c(Nc3cc(C)ccn3)c(C(=S)Nc3ccccc3)c2N)cc1", "inactive"],
  ["CSc1cccc(-n2c3nc(=O)n(C)c(=O)c-3nc3ccccc32)c1", "inactive"],
  ["COC(=O)C(Cc1nc2ccccc2nc1O)C(=O)C(=O)Nc1ccc(F)cc1 (stereo unspecified)", "inactive"],
  ["CCOC(OC1=C(C#N)CCCC1)C(CC)[Se]c1ccccc1[N+](=O)[O-] (stereo unspecified)", "inactive"],
  ["COc1ccc(CNc2nc3ccccc3nc2C(=O)O)cc1OC", "inactive"],
  ["O=S(=O)(N=S(c1ccc(Cl)cc1)c1ccc(Cl)cc1)c1ccccc1", "inactive"],
  ["O=C1CCC(=O)c2cc(Br)ccc2N1", "inactive"],
  ["OC(c1nc2ccccc2s1)(C(F)(F)F)C(F)(F)F", "inactive"],
  ["Cn1c(=O)sc2cc(C(=S)N3CCOCC3)ccc21", "inactive"]
]}
